- Tested on: Peritoneal macrophage
- protocol: Antiinflammatory activity in mouse peritoneal macrophages assessed as reduction in LPS-induced IL6 level at 10 uM incubated for 4 hrs by ELISA method
- Assay type: functional, cell-based
Calls of active or inactive are those of the source. The rule behind the calls is not given here.
metric: Activity

compound: COc1ccc(S(=O)(=O)N(CC(N)=O)c2ccc(N(CC(N)=O)S(=O)(=O)c3ccc(NC(=O)[C@H]4CCNC4)cc3)c3ccccc23)cc1
measurement target: Peritoneal macrophage
experimental value: Active

compound: COc1ccc(S(=O)(=O)N(CC(N)=O)c2ccc(N(CC(N)=O)S(=O)(=O)c3ccc(NC(=O)[C@@H]4CCNC4)cc3)c3ccccc23)cc1
measurement target: Peritoneal macrophage
experimental value: Active

compound: COc1ccc(S(=O)(=O)N(CC(N)=O)c2ccc(N(CC(N)=O)S(=O)(=O)c3ccc(NC(=O)[C@H]4CCCN4)cc3)c3ccccc23)cc1
measurement target: Peritoneal macrophage
experimental value: Active

compound: COc1ccc(S(=O)(=O)N(CC(N)=O)c2ccc(N(CC(N)=O)S(=O)(=O)c3ccc(NC(=O)C4CCN4)cc3)c3ccccc23)cc1 (stereo unspecified)
measurement target: Peritoneal macrophage
experimental value: Active

compound: COc1ccc(S(=O)(=O)N(CC(N)=O)c2ccc(N(CC(N)=O)S(=O)(=O)c3ccc(NC(=O)[C@@H]4CCCNC4)cc3)c3ccccc23)cc1
measurement target: Peritoneal macrophage
experimental value: Active

Any idea what its Activity is? The compound is `CC[C@@H](N)C(=O)Nc1ccc(S(=O)(=O)N(CC(N)=O)c2ccc(N(CC(N)=O)S(=O)(=O)c3ccc(OC)cc3)c3ccccc23)cc1` Active

###

- protocol: Clearance in Sprague-Dawley rat at 5 mg/kg, iv
- Assay type: ADME, organism-based
- condition info: in vivo
metric: clearance
Report the figure along with its unit, number first.

Any idea what its clearance is? The molecule is `COc1ccc(S(=O)(=O)N(CC(N)=O)c2ccc(N(CC(N)=O)S(=O)(=O)c3ccc(NC(=O)[C@H]4CCN4)cc3)c3ccccc23)cc1` 57.4 mL/min/kg

###

- protocol: MRT (0 to 24 hrs) in Sprague-Dawley rat at 5 mg/kg, iv
- Assay type: ADME, organism-based
- condition info: in vivo
metric: MRT last (h)
I only need the number, in h, no unit after it.

Any idea what its MRT last is? The molecule is `COc1ccc(S(=O)(=O)N(CC(N)=O)c2ccc(N(CC(N)=O)S(=O)(=O)c3ccc(NC(=O)[C@H]4CCN4)cc3)c3ccccc23)cc1` 2.83

###

- measurement target: Keap1/Nrf2 (Homo sapiens) (UniProt Q16236+Q14145)
- Sequence (Q14145 whole entry, looked up): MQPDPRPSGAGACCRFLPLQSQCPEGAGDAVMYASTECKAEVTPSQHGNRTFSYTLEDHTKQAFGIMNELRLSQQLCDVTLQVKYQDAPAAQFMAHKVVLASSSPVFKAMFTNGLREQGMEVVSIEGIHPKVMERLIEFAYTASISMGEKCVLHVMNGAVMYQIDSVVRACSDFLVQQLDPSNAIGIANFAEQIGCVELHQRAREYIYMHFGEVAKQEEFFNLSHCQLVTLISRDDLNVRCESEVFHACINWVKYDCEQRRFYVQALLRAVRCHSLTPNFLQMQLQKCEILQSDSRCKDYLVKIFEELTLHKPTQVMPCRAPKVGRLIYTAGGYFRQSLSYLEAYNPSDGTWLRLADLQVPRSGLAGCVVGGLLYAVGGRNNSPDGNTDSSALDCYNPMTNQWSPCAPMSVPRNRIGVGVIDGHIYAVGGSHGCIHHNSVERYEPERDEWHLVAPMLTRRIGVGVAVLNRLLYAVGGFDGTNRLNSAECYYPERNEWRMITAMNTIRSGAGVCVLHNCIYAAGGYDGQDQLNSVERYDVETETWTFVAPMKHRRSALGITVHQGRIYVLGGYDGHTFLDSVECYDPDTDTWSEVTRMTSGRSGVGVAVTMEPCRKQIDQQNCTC
- Sequence (Q16236 whole entry, looked up): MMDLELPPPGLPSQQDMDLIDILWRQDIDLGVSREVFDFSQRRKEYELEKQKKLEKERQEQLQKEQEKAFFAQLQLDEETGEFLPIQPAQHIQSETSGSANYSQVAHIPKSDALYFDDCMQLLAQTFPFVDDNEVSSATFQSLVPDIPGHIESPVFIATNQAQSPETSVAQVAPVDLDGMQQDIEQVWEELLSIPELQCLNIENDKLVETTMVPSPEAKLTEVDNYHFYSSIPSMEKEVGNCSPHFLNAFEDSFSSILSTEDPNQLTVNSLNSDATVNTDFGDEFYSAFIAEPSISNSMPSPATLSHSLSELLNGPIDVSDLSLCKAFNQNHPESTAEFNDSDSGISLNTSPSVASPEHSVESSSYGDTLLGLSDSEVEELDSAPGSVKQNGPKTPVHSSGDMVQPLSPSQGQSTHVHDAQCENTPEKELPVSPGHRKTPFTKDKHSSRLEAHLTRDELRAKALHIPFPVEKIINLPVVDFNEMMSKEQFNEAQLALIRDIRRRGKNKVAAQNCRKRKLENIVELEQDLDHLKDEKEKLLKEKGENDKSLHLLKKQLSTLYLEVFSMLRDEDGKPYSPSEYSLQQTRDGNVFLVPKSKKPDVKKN
- protocol: Binding affinity to human Keap1-Nrf2 protein-protein interaction assessed as dissociation constant (Kd2) incubated for 60 mins by fluorescent polarization assay
K vs 300 nM: less than gives 1 (yes); not less than gives 0 (no).

Reference set (5 entries):
compound string: COC[C@H](N)C(=O)Nc1ccc(S(=O)(=O)N(CC(N)=O)c2ccc(N(CC(N)=O)S(=O)(=O)c3ccc(OC)cc3)c3ccccc23)cc1
measurement target: Keap1/Nrf2 (Homo sapiens) (UniProt Q16236+Q14145)
qualitative label: 0 (no)
//
compound string: COc1ccc(S(=O)(=O)N(CC(N)=O)c2ccc(N(CC(N)=O)S(=O)(=O)c3ccc(NC(=O)CN)cc3)c3ccccc23)cc1
measurement target: Keap1/Nrf2 (Homo sapiens) (UniProt Q16236+Q14145)
qualitative label: 1 (yes)
//
compound string: COc1ccc(S(=O)(=O)N(CC(N)=O)c2ccc(N(CC(N)=O)S(=O)(=O)c3ccc(NC(=O)[C@@H]4CCNC4)cc3)c3ccccc23)cc1
measurement target: Keap1/Nrf2 (Homo sapiens) (UniProt Q16236+Q14145)
qualitative label: 1 (yes)
//
compound string: COc1ccc(S(=O)(=O)N(CC(N)=O)c2ccc(N(CC(N)=O)S(=O)(=O)c3ccc(NC(=O)[C@H]4CCCNC4)cc3)c3ccccc23)cc1
measurement target: Keap1/Nrf2 (Homo sapiens) (UniProt Q16236+Q14145)
qualitative label: 0 (no)
//
compound string: COc1ccc(S(=O)(=O)N(CC(N)=O)c2ccc(N(CC(N)=O)S(=O)(=O)c3ccc(NC(=O)CCCCN)cc3)c3ccccc23)cc1
measurement target: Keap1/Nrf2 (Homo sapiens) (UniProt Q16236+Q14145)
qualitative label: 1 (yes)

# input for lookup
API: query returns whether the molecule falls strictly under 300 nM in K. Query: `COc1ccc(S(=O)(=O)N(CC(N)=O)c2ccc(N(CC(N)=O)S(=O)(=O)c3ccc(NC(=O)CCN)cc3)c3ccccc23)cc1` 0 (no)

###

Catalogue of K readings, one per entry.
- measurement target: Keap1/Nrf2 (Homo sapiens) (UniProt Q16236+Q14145)
- protocol: Binding affinity to human Keap1-Nrf2 protein-protein interaction assessed as dissociation constant (Kd2) incubated for 60 mins by fluorescent polarization assay
I only need the number, in nM, no unit after it.

Examples with answers:
compound string: CCC[C@@H](N)C(=O)Nc1ccc(S(=O)(=O)N(CC(N)=O)c2ccc(N(CC(N)=O)S(=O)(=O)c3ccc(OC)cc3)c3ccccc23)cc1
experimental value: 590
//
compound string: CNCC(=O)Nc1ccc(S(=O)(=O)N(CC(N)=O)c2ccc(N(CC(N)=O)S(=O)(=O)c3ccc(OC)cc3)c3ccccc23)cc1
experimental value: 250
//
compound string: COc1ccc(S(=O)(=O)N(CC(N)=O)c2ccc(N(CC(N)=O)S(=O)(=O)c3ccc(NC(=O)[C@@H](N)CSC)cc3)c3ccccc23)cc1
experimental value: 440

Next compound, K to be filled in.
Any idea what its K is? The compound is `COC[C@@H](N)C(=O)Nc1ccc(S(=O)(=O)N(CC(N)=O)c2ccc(N(CC(N)=O)S(=O)(=O)c3ccc(OC)cc3)c3ccccc23)cc1` 280

###

- protocol: MRT (0 to infinity) in Sprague-Dawley rat at 5 mg/kg, iv
- Type: ADME, organism-based
- condition info: in vivo
metric: MRT inf (h)
I only need the number, in h, no unit after it.

Any idea what its MRT inf is? The compound is `COc1ccc(S(=O)(=O)N(CC(N)=O)c2ccc(N(CC(N)=O)S(=O)(=O)c3ccc(NC(=O)[C@H]4CCN4)cc3)c3ccccc23)cc1` 9.67

###

- measurement target: Keap1/Nrf2 (Homo sapiens) (UniProt Q16236+Q14145)
- protocol: Binding affinity to human Keap1-Nrf2 protein-protein interaction assessed as dissociation constant (Kd2) incubated for 60 mins by fluorescent polarization assay
metric: K (nM)
I only need the number, in nM, no unit after it.

Examples with answers:
compound: COc1ccc(S(=O)(=O)N(CC(N)=O)c2ccc(N(CC(N)=O)S(=O)(=O)c3ccc(NC(=O)C4CCCNC4)cc3)c3ccccc23)cc1 (stereo unspecified)
K, nM: 430
--
compound: COc1ccc(S(=O)(=O)N(CC(N)=O)c2ccc(N(CC(N)=O)S(=O)(=O)c3ccc(NC(=O)[C@@H](N)C(C)C)cc3)c3ccccc23)cc1
K, nM: 400
--
compound: CC[C@@H](N)C(=O)Nc1ccc(S(=O)(=O)N(CC(N)=O)c2ccc(N(CC(N)=O)S(=O)(=O)c3ccc(OC)cc3)c3ccccc23)cc1
K, nM: 320
--
compound: COc1ccc(S(=O)(=O)N(CC(N)=O)c2ccc(N(CC(N)=O)S(=O)(=O)c3ccc(NC(=O)[C@H](N)Cc4ccccc4)cc3)c3ccccc23)cc1
K, nM: 1170
--
compound: COc1ccc(S(=O)(=O)N(CC(N)=O)c2ccc(N(CC(N)=O)S(=O)(=O)c3ccc(NC(=O)[C@@H]4CCN4)cc3)c3ccccc23)cc1
K, nM: 650

Next compound, K to be filled in.
Any idea what its K is? The compound is `COc1ccc(S(=O)(=O)N(CC(N)=O)c2ccc(N(CC(N)=O)S(=O)(=O)c3ccc(NC(=O)[C@@H]4CCCNC4)cc3)c3ccccc23)cc1` 270
